Hey, just so you know, these numbers are from paper PMC6328172.

# maps each entry to its Selectivity 5-HT2C/2A (functional, in parentheses)
molecular target: human 5-HT2C receptor (Homo sapiens); construct: expressed in transfected cells; host or cells: HeLa (HeLa-5-HT2C cell line); assay: Ca2+ mobilization in HeLa h5-HT2C cells; assay type: cell-based; conditions: from EC50 values, Table 2

Example cases with answers are listed next.
• COc1ccc2[nH]cc(CCNCc3ccccc3)c2c1 = 1.41
• Clc1ccc(CNCCc2c[nH]c3ccccc23)cc1 = 1.17
• Oc1c(F)cccc1CNCCc1c[nH]c2ccccc12 = 9.55
• COc1ccc2[nH]cc(CCNCc3cc(F)ccc3O)c2c1 = 0.38
• COc1ccc(CNCCc2c[nH]c3ccccc23)cc1OC = 38.9

IN: Look at this compound and give its reported Selectivity 5-HT2C/2A (functional, in parentheses). COc1ccc2[nH]cc(CCNCc3ccccc3Cl)c2c1
OUT: 0.15

IN: Given the entry Clc1cccc(CNCCc2c[nH]c3ccccc23)c1 , report its measured Selectivity 5-HT2C/2A (functional, in parentheses).
OUT: 0.43

---

target: human 5-HT2A receptor (Homo sapiens); construct: expressed in transfected cells; host or cells: CHO (CHO-5-HT2A cell line); test: Competition binding to the human 5-HT2A receptor ([3H]ketanserin, CHO-5-HT2A membranes); settings: human receptor, [3H]ketanserin displacement; no unit in the table, nM; read-out: 5-HT2A Ki (in parentheses) (converted)
EXPERIMENTAL READOUT: Ki (nM)
Kindly provide the numeric value in nM only, without the unit symbol.

The following compounds have reported results that may help.
• COc1cccc(CNCCc2c[nH]c3ccccc23)c1OC = 1510
• Clc1ccc(CNCCc2c[nH]c3ccccc23)cc1 = 708
• Oc1ccc(F)cc1CNCCc1c[nH]c2ccccc12 = 759

For the next question, use this compound.
IN: Fill blank: measured Ki of the compound Cc1ccc(O)c(CNCCc2c[nH]c3ccccc23)c1 is ____.
OUT: 741

---

molecular target: human 5-HT2A receptor (Homo sapiens, UniProt P28223); construct: expressed in transfected cells; host or cells: CHO (CHO-5-HT2A cell line); test: Ca2+ mobilization in CHO h5-HT2A cells; format: cell-based; conditions: Ca2+ mobilization; no unit in the table, nM; read-out: 5-HT2A EC50 (in parentheses) (converted)
Sequence (P28223 whole entry): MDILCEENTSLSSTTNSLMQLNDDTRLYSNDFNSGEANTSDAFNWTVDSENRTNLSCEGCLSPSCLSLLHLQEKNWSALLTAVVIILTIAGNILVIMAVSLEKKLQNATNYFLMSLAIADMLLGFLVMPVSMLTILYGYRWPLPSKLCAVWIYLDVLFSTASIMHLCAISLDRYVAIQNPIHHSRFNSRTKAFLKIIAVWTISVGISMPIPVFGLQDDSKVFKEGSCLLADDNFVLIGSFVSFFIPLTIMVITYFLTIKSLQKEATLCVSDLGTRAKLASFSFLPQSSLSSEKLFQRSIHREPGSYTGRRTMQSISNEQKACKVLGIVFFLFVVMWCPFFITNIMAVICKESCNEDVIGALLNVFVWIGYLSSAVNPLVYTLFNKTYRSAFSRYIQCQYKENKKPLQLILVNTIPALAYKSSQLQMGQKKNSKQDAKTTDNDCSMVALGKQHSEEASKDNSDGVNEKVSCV
EXPERIMENTAL READOUT: EC50 (nM)
Respond with the bare value in nM.

In the examples that follow, each entry is paired with its recorded EC50.
* COc1ccc(OC)c(CNCCc2c[nH]c3ccccc23)c1 | 3470
* COc1ccc2[nH]cc(CCNCc3ccc(Br)cc3)c2c1 | 1860
* Brc1cccc(CNCCc2c[nH]c3ccccc23)c1 | 58.9
* Cc1ccccc1CNCCc1c[nH]c2ccccc12 | 2000

IN: Given the entry Fc1cccc(CNCCc2c[nH]c3ccccc23)c1 , report its measured EC50.
OUT: 389

IN: Need EC50 of Brc1ccccc1CNCCc1c[nH]c2ccccc12 , thanks.
OUT: 2240

---

target: human 5-HT2A receptor (Homo sapiens, UniProt P28223); construct: expressed in transfected cells; host or cells: CHO (CHO-5-HT2A cell line); assay: Competition binding to the human 5-HT2A receptor ([3H]ketanserin, CHO-5-HT2A membranes); details: from Ki values, Table 1
Label Met when Selectivity 5-HT2A/2C (binding) is at or above 0.7; otherwise label Not met.

Consider the worked cases shown below.
• Oc1cc(Br)ccc1CNCCc1c[nH]c2ccccc12 = Not met
• O=[N+]([O-])c1ccc(CNCCc2c[nH]c3ccccc23)cc1 = Not met
• Oc1ccc(CNCCc2c[nH]c3ccccc23)cc1 = Met
• COc1ccc2[nH]cc(CCNCc3ccccc3OC)c2c1 = Met
• Oc1cccc(CNCCc2c[nH]c3ccccc23)c1 = Not met

IN: Kindly determine if Selectivity 5-HT2A/2C (binding) recorded for Clc1ccc(CNCCc2c[nH]c3ccccc23)cc1 is above or exactly 0.7.
OUT: Met

IN: Could you tell me if the measured Selectivity 5-HT2A/2C (binding) of Brc1ccc(CNCCc2c[nH]c3ccccc23)cc1 reaches 0.7 or more?
OUT: Met

IN: State whether the measured Selectivity 5-HT2A/2C (binding) reaches 0.7, counting equality as reaching it, for Fc1cccc(CNCCc2c[nH]c3ccccc23)c1
OUT: Met

---

target: human 5-HT2A receptor (Homo sapiens); construct: expressed in transfected cells; host or cells: CHO (CHO-5-HT2A cell line); assay: Ca2+ mobilization in CHO h5-HT2A cells; format: cell-based; settings: relative efficacy, % of response to 5-HT
Collected Emax values appear next to each entry.
Give the number; % is assumed, so skip it.

* COc1ccc2[nH]cc(CCNCc3cc(F)ccc3O)c2c1 | 83.3
* COc1cccc(CNCCc2c[nH]c3ccccc23)c1O | 26.2
* COc1ccc(F)cc1CNCCc1c[nH]c2ccccc12 | 58

IN: Reported Emax for Clc1ccc(CNCCc2c[nH]c3ccccc23)cc1 : what is it?
OUT: 80

IN: Requested field: Emax. Item: Clc1cccc(CNCCc2c[nH]c3ccccc23)c1
OUT: 57.9

IN: // lookup Emax for NCCc1c[nH]c2ccccc12
OUT: 97.6

IN: Endpoint output: Emax of Oc1ccc(F)cc1CNCCc1c[nH]c2ccccc12 . Value?
OUT: 71.6

IN: Value lookup for Emax; key = c1ccc(CNCCc2c[nH]c3ccccc23)cc1 [Compound 1, N-Benzyl-[2-(1H-indol-3-yl)ethyl]amine]
OUT: 61.6

IN: Field request: Emax | item: Oc1c(F)cccc1CNCCc1c[nH]c2ccccc12
OUT: 53.6

IN: Which measured Emax value corresponds to COc1ccc2[nH]cc(CCNCc3ccccc3Cl)c2c1 ?
OUT: 47.7

---

target: human 5-HT2A receptor (Homo sapiens, UniProt P28223); construct: expressed in transfected cells; host or cells: CHO (CHO-5-HT2A cell line); assay: Ca2+ mobilization in CHO h5-HT2A cells; format: cell-based; conditions: Ca2+ mobilization, pEC50 ± SEM; read-out: 5-HT2A pEC50 (converted)
Below is a list of entries, each paired with its recorded EC50 value.
Report the figure in µM without appending any unit label.

Some entries whose results are on file:
* COc1ccccc1CNCCc1c[nH]c2ccccc12 [Compound 3] | 1.55
* COc1ccc(Cl)cc1CNCCc1c[nH]c2ccccc12 [Compound 28] | 8.91

IN: Query: EC50; subject: Oc1c(Br)cccc1CNCCc1c[nH]c2ccccc12 [Compound 21]
OUT: 15.8

IN: # EC50 lookup, item COc1ccc(Br)cc1CNCCc1c[nH]c2ccccc12 [Compound 27]
OUT: 17.8

---

Some compounds, each annotated with its measured Ki.
target: human 5-HT2A receptor (Homo sapiens, UniProt P28223); construct: expressed in transfected cells; host or cells: CHO (CHO-5-HT2A cell line); experiment: Competition binding to the human 5-HT2A receptor ([3H]ketanserin, CHO-5-HT2A membranes); conditions: human receptor, [3H]ketanserin displacement; no unit in the table, nM; read-out: 5-HT2A Ki (in parentheses) (converted)
Please answer using a numeric value trailed by its unit.

* COc1ccc2[nH]cc(CCNCc3ccc(Br)cc3)c2c1 | 389 nM
* Clc1ccccc1CNCCc1c[nH]c2ccccc12 | 12 nM
* CCOc1ccc(CNCCc2c[nH]c3ccccc23)cc1 | 275 nM
* COc1ccc(Br)cc1CNCCc1c[nH]c2ccccc12 | 1120 nM

Now let's try a different one.
IN: Looking for the measured Ki of Brc1ccc(CNCCc2c[nH]c3ccccc23)cc1 , can you help?
OUT: 1000 nM

---

The following compounds are shown together with reported Selectivity 5-HT2C/2A (functional, in parentheses) values.
molecular target: human 5-HT2C receptor (Homo sapiens, UniProt P28335); construct: expressed in transfected cells; host or cells: HeLa (HeLa-5-HT2C cell line); assay: Ca2+ mobilization in HeLa h5-HT2C cells; type: cell-based; details: from EC50 values, Table 2
Sequence (P28335 33-458): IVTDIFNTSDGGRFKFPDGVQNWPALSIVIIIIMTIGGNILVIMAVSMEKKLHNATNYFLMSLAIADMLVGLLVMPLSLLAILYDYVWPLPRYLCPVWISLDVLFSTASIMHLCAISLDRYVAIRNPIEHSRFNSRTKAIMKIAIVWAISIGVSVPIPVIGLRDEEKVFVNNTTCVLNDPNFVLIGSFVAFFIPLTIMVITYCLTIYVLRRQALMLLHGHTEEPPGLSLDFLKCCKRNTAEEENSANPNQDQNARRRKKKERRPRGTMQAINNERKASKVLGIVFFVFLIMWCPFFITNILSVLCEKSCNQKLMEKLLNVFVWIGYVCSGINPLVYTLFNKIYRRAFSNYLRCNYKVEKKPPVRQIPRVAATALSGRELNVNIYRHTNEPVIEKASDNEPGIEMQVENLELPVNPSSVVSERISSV
Reply with just the number.

• Oc1cc(Br)ccc1CNCCc1c[nH]c2ccccc12 = 30.2
• c1ccc(CNCCc2c[nH]c3ccccc23)cc1 [Compound 1, N-Benzyl-[2-(1H-indol-3-yl)ethyl]amine] = 3.24
• Fc1cccc(CNCCc2c[nH]c3ccccc23)c1 = 3.47
• Oc1ccccc1CNCCc1c[nH]c2ccccc12 = 5.89

Now consider the entry below.
IN: Quick check: Selectivity 5-HT2C/2A (functional, in parentheses) on human 5-HT2C receptor (Homo sapiens, UniProt P28335), item COc1ccc(Cl)cc1CNCCc1c[nH]c2ccccc12 ?
OUT: 37.2

---

The entries below are paired with their reported Emax.
biological target: human 5-HT2A receptor (Homo sapiens, UniProt P28223); construct: expressed in transfected cells; host or cells: CHO (CHO-5-HT2A cell line); assay: Ca2+ mobilization in CHO h5-HT2A cells; type: cell-based; conditions: relative efficacy, % of response to 5-HT
State the value with its unit after it.

Examples with their reported Emax follow.
• COc1ccc2[nH]cc(CCNCc3ccccc3)c2c1 = 63.2%
• Cc1ccc(O)c(CNCCc2c[nH]c3ccccc23)c1 = 43.6%

Now consider the entry below.
IN: # Emax lookup, item Cc1cccc(CNCCc2c[nH]c3ccccc23)c1
OUT: 33%
